Target: human (h) TRPV3 (Homo sapiens, UniProt Q8NET8)
Construct: expressed in transfected cells; host or cells: HEK293/TREx, tetracycline-induced
Sequence (Q8NET8 whole entry): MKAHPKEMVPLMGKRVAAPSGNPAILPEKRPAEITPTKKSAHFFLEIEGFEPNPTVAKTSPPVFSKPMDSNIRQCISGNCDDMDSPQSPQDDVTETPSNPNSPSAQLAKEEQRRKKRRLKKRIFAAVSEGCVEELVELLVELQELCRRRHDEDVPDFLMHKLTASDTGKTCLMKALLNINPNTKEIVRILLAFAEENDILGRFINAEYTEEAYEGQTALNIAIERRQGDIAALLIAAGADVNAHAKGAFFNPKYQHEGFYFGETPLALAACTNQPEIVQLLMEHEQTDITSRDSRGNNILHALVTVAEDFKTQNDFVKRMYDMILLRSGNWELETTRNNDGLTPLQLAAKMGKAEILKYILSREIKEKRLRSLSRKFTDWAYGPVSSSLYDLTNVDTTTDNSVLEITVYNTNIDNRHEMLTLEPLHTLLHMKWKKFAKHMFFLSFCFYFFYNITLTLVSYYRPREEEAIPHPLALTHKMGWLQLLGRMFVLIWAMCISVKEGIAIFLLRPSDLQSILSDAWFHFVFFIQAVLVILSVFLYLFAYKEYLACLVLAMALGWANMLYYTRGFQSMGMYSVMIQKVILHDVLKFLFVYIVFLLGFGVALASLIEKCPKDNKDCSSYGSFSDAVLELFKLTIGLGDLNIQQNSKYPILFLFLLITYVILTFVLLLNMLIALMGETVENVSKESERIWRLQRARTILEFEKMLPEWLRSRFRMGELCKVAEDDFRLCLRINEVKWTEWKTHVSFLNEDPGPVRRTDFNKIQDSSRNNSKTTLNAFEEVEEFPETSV
Assay: Whole-cell patch clamp, human TRPV3-mediated currents;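 further: compounds tested at concentrations up to 30 µM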
Assay type: cell-based
Conditions: Phase 2 outward current, read-out: P2 Out (h)
Measured property: IC50

// below: answered molecules
| Chemical smiles | IC50 |
| --- | --- |
| COc1cccc(/C=C/c2nc3ccccc3c(=O)n2-c2c(C)cccc2OCCO)c1O | ≤ 1 µM |
| COc1cccc(/C=C/c2nc3ccccc3c(=O)n2-c2c(C)cncc2C)c1O | ≤ 5 µM |
| COc1cccc(C=Cc2nc3cnccc3c(=O)n2-c2c(C)cccc2C)c1O | ≤ 0.5 µM |
| COc1nccc(/C=C/c2nc3ccccc3c(=O)n2-c2c(C)cccc2C)c1O | ≤ 0.5 µM |
| COc1ccnc(/C=C/c2nc3ccccc3c(=O)n2-c2c(C)cccc2C)c1O | ≤ 10 µM |
| CCc1cccc(CC)c1-n1c(/C=C/c2cccc(OC)c2O)nc2ccccc2c1=O | ≤ 0.5 µM |
| Cc1cccc(C)c1-n1c(/C=C/c2cccc(OC(F)(F)F)c2O)nc2cnccc2c1=O | ≤ 0.5 µM |

Tell me IC50 reported for `COc1cccc(/C=C/c2nc3cnccc3c(=O)n2-c2c(C)cccc2OC)c1O`
≤ 0.5 µM

====

Biological target: human (h) TRPV3 (Homo sapiens, UniProt Q8NET8)
Construct: expressed in transfected cells; host or cells: HEK293/TREx, tetracycline-induced
Assay: Whole-cell patch clamp, human TRPV3-mediated currents;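 further: compounds tested at concentrations up to 30 µM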
Format: cell-based
Conditions: Phase 1 inward current, read-out: P1 In (h)
Below, each of the molecules is paired with its reported IC50 value.

// below: answered molecules
| Chemical smiles | Meas value |
| --- | --- |
| COc1cccc(-n2c(/C=C/c3cccc(OC)c3O)nc3cnccc3c2=O)c1C | ≤ 10 µM |
| Cc1cccc(C)c1-n1c(/C=C/c2cccc(OC(F)(F)F)c2O)nc2ccccc2c1=O | ≤ 0.5 µM |
| COc1cccc(/C=C/c2nc3cnccc3c(=O)n2-c2ccccc2C#N)c1O | ≤ 10 µM |

Tell me IC50 reported for `CCOc1cccc(/C=C/c2nc3cnccc3c(=O)n2-c2c(F)cccc2F)c1O`
≤ 0.5 µM

====

Target: rat (r) TRPV3 (Rattus norvegicus, UniProt Q4QYD9)
Construct: expressed in transfected cells
Sequence (Q4QYD9 1-791): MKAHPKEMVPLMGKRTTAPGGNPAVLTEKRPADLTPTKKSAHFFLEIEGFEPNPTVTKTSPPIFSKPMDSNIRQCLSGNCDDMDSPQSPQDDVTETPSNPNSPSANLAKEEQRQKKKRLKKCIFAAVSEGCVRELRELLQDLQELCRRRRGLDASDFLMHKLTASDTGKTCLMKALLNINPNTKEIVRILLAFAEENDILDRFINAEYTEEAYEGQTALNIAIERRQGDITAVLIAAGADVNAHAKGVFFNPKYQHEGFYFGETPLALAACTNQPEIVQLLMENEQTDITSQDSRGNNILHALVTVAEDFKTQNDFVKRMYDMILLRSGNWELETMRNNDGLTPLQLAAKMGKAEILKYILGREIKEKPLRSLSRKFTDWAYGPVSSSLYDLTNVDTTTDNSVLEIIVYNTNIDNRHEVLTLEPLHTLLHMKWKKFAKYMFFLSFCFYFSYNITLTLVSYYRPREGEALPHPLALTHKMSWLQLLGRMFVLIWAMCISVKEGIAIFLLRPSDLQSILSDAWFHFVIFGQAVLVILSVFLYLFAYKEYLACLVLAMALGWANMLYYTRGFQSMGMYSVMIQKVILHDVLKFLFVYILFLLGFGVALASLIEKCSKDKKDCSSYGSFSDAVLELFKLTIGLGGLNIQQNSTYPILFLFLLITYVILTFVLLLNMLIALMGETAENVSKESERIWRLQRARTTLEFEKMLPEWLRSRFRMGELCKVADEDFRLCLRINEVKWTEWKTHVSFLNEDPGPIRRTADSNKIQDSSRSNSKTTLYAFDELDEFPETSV
Test: Whole-cell patch clamp, rat TRPV3-mediated currents;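 further: compounds tested at concentrations up to 30 µM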
Format: cell-based
Conditions: Phase 1 outward current, read-out: P1 Out (r)
pIC50: −log10 of the molar value.
Measured property: pIC50

// below: answered compounds
| Chemical smiles | Meas value |
| --- | --- |
| COc1cccc(C=Cc2nc3cnccc3c(=O)n2-c2c(C)cccc2C)c1O | ≥ 6.30 |
| COc1cccc(/C=C/c2nc3ccccc3c(=O)n2-c2c(F)cccc2F)c1O | ≥ 6.30 |
| COc1cccc(/C=C/c2nc3ccccc3c(=O)n2-c2c(C)ccnc2C)c1O | ≥ 6.00 |

Tell me pIC50 reported for `COc1cccc(/C=C/c2nc3cnccc3c(=O)n2-c2c(C)cccc2Cl)c1O`
≥ 6.30

====

Below, each of the compounds is paired with its reported pIC50 value.
Target: human (h) TRPV3 (Homo sapiens, UniProt Q8NET8)
Construct: expressed in transfected cells; host or cells: HEK293/TREx, tetracycline-induced
Experiment: Whole-cell patch clamp, human TRPV3-mediated currents;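 further: compounds tested at concentrations up to 30 µM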
Type: cell-based
Details: Phase 1 inward current, read-out: P1 In (h)
pIC50: −log10 of the molar value.

// below: answered compounds
| Chemical smiles | Target entity | pIC50 |
| --- | --- | --- |
| COc1ccccc1-n1c(/C=C/c2cccc(OC)c2O)nc2ccccc2c1=O | human (h) TRPV3 (Homo sapiens, UniProt Q8NET8) | ≥ 6.30 |
| COc1cccc(/C=C/c2nc3cnccc3c(=O)n2-c2c(C)cccc2OC)c1O | human (h) TRPV3 (Homo sapiens, UniProt Q8NET8) | ≥ 6.30 |
| COc1cccc(/C=C(\C)c2nc3ccccc3c(=O)n2-c2ccccc2C)c1O | human (h) TRPV3 (Homo sapiens, UniProt Q8NET8) | ≥ 5.30 |

Shift focus to the following entry.
Tell me pIC50 reported for `Cc1cccc(C)c1-n1c(/C=C/c2cc(Cl)ccc2O)nc2cnccc2c1=O`
≥ 5.30

Data provenance is patent US9486455B2.
